Exercise: state measured IC50 for each of the molecules provided.
# System: PC-3M
# assay_remarks: MTT cell proliferation assay, PC-3M
# Format: cell-based
# run_conditions: 72 hours, mean±SD, n=3
Reply numerically in µM, unit not repeated.

Query :: I'd like to know its IC50. The molecule in question is COc1cc(/C=C/C(=O)/C=C/c2cc(OC)c(OS(N)(=O)=O)c(OC)c2)cc(OC)c1OS(N)(=O)=O [CLT010-12]
Result :: 4.2

Query :: So what does the record say about IC50 for COc1cc(/C=C/C(=O)CC(=O)/C=C/c2ccc(OS(N)(=O)=O)c(OC)c2)ccc1OS(N)(=O)=O [CLT010-01] ?
Result :: 8.5

Query :: Looking for the measured IC50 of COc1cc(/C=C/c2cc(/C=C/c3ccc(OS(N)(=O)=O)c(OC)c3)[nH]n2)ccc1OS(N)(=O)=O [CLT010-07] , can you help?
Result :: 6.7
